experiment: Biodistribution of 68Ga-labeled peptide in mice bearing B16F10 mouse melanoma; assay type: in vivo, C57BL/6J mice; details: pancreas, iv, total radioactivity, 1 h p.i. unblocked, C57BL/6J mice, B16F10 melanoma, read-out: Biodistribution, Pancreas
Observable: tissue uptake at 1 h (%ID/g)
Note: unit %ID/g is implicit; provide only the numeric part.

Asked: Which value of tissue uptake at 1 h has been reported for CCCC[C@H](NC(=O)CN1CCC(NC(=O)CN2CCN(CC(=O)O)CCN(CC(=O)O)CCN(CC(=O)O)CC2)CC1)C(=O)N[C@H]1CC(=O)NCCCC[C@@H](C(N)=O)N(C)C(=O)[C@H](Cc2c[nH]c3ccccc23)N(C)C(=O)[C@H](CCCNC(=N)N)N(C)C(=O)[C@@H](Cc2ccccc2)NC(=O)[C@H](Cc2c[nH]cn2)N(C)C1=O [^68Ga-labeled CCZ01099, metal not drawn] in the records?
Given back: 0.17

----------
assay: Biodistribution of 177Lu-labeled αMSH analogues in mice bearing B16F10 mouse melanoma; type: in vivo, C57BL/6J mice; conditions: mouse, bone, iv, total radioactivity; 4 h p.i., C57BL/6J mice, B16F10 melanoma; read-out: Biodistribution, Bone
Observable: tissue uptake at 4 h (%ID/g)
Note: unit %ID/g is implicit; provide only the numeric part.

Compound: CCCC[C@H](NC(=O)CN1CCC(NC(=O)[C@H](CCCCNC(=O)CN2CCN(CC(=O)O)CCN(CC(=O)O)CCN(CC(=O)O)CC2)NC(=O)[C@H](CCC(=O)O)NC(=O)CCCc2ccc(I)cc2)CC1)C(=O)N[C@H]1CC(=O)NCCCC[C@@H](C(N)=O)N(C)C(=O)[C@H](Cc2c[nH]c3ccccc23)NC(=O)[C@H](CCCNC(=N)N)N(C)C(=O)[C@@H](Cc2ccccc2)NC(=O)[C@H](Cc2c[nH]cn2)NC1=O [^177Lu-labeled CCZ01118, metal not drawn]
Readout Unit: %ID/g
Value: 0.29

Compound: CCCC[C@H](NC(=O)CN1CCC(NC(=O)CN2CCN(CC(=O)O)CCN(CC(=O)O)CCN(CC(=O)O)CC2)CC1)C(=O)N[C@H]1CC(=O)NCCCC[C@@H](C(N)=O)N(C)C(=O)[C@H](Cc2c[nH]c3ccccc23)NC(=O)[C@H](CCCNC(=N)N)N(C)C(=O)[C@@H](Cc2ccccc2)NC(=O)[C@H](Cc2c[nH]cn2)NC1=O [^177Lu-labeled CCZ01106, metal not drawn]
Readout Unit: %ID/g
Value: 0.07

Compound: CCCC[C@H](NC(=O)CN1CCC(NC(=O)[C@H](CCCCNC(=O)CN2CCN(CC(=O)O)CCN(CC(=O)O)CCN(CC(=O)O)CC2)NC(=O)[C@H](CCC(=O)O)NC(=O)CCCc2ccc(I)cc2)CC1)C(=O)N[C@H]1CC(=O)NCCCC[C@@H](C(N)=O)N(C)C(=O)[C@H](Cc2c[nH]c3ccccc23)N(C)C(=O)[C@H](CCCNC(=N)N)N(C)C(=O)[C@@H](Cc2ccccc2)NC(=O)[C@H](Cc2c[nH]cn2)N(C)C1=O [^177Lu-labeled CCZ01088, metal not drawn]
Readout Unit: %ID/g
Value: 0.3

Asked: Which value of tissue uptake at 4 h has been reported for CCCC[C@H](NC(=O)CN1CCC(NC(=O)[C@H](CCCCNC(=O)CN2CCN(CC(=O)O)CCN(CC(=O)O)CCN(CC(=O)O)CC2)NC(=O)[C@H](CCC(=O)O)NC(=O)CCCc2ccc(I)cc2)CC1)C(=O)N[C@H]1CC(=O)NCCCC[C@@H](C(N)=O)NC(=O)[C@H](Cc2c[nH]c3ccccc23)NC(=O)[C@H](CCCNC(=N)N)NC(=O)[C@@H](Cc2ccccc2)NC(=O)[C@H](Cc2c[nH]cn2)NC1=O [^177Lu-labeled CCZ01082, metal not drawn] in the records?
Given back: 0.51

Asked: Which value of tissue uptake at 4 h has been reported for CCCC[C@H](NC(=O)CN1CCC(NC(=O)CN2CCN(CC(=O)O)CCN(CC(=O)O)CCN(CC(=O)O)CC2)CC1)C(=O)N[C@H]1CC(=O)NCCCC[C@@H](C(N)=O)N(C)C(=O)[C@H](Cc2c[nH]c3ccccc23)N(C)C(=O)[C@H](CCCNC(=N)N)N(C)C(=O)[C@@H](Cc2ccccc2)NC(=O)[C@H](Cc2c[nH]cn2)N(C)C1=O [^177Lu-labeled CCZ01099, metal not drawn] in the records?
Given back: 0.06
